All figures here come from patent US12545637B2.

# maps each entry to its cell survival rate higher than compound 21
Tested on: 293T cells
Experiment: Cell survival rate assay (CCK-8)
Type: cell-based
Settings: difference vs compound 21
Give the number; % is assumed, so skip it.

Please review the entries below; each comes with its answer.
Sample Smiles | Experimental Result
CCCCCCCCC(CCCCCCCC)COC(=O)CCCCCN(CCCO)CCCN(CCCO)CCCCCC(=O)OCC(CCCCCCCC)CCCCCCCC | 3.30
CCCCCCCCCCCOC(=O)CCCN(CCO)CCN(CCO)CCCCCC(=O)OC(CCCCCCCC)CCCCCCCC | 3.53
CCCCCCCCC(CCCCCCCC)C(=O)OCCCCCCN(CCO)CCN(CCO)CCCCCCOC(=O)C(CCCCCCCC)CCCCCCCC | 4.86

[ask] Item under review: "CCCCCCCCC(CCCCCCCC)OC(=O)CCCCCCCN(CCO)CCN(CCO)CCCCCCCC(=O)OC(CCCCCCCC)CCCCCCCC" . Reported cell survival rate higher than compound 21?
[reply] 2.92

[ask] One more molecule: "CCCCCCCCC(CCCCCCCC)COC(=O)CCCCCN(CCCO)CCN(CCCO)CCCCCC(=O)OCC(CCCCCCCC)CCCCCCCC"
[reply] 2.64

[ask] One more molecule: "CCCCCCCCC(CCCCCCCC)OC(=O)CCCCCN(CCO)CCN(CCO)CCCCCC(=O)OC(CCCCCCCC)CCCCCCCC"
[reply] 7.37
